- Tested on: HCT-116 colon
- Test summary: NCI tumour cell line growth inhibition, 48 h
# label = Condition met if TGI >= 10 µM else Condition not met

Check the entry Clc1ccc(-c2nc(-c3c[nH]c4ncccc34)cs2)cc1 : does TGI equal or exceed 10 µM? Condition met

Threshold query (TGI >= 10 µM) on Brc1ccc(-c2ccc(-c3ccc(-c4ccc(Br)s4)s3)s2)s1 Condition met

Others:
Is reported TGI greater than or equal to 10 µM here: Clc1cccc(Cn2cc(Cc3cn(Cc4cccc(Cl)c4)c4ccccc34)c3ccccc32)c1 Condition met

Given CC1C(=O)CCC1C(Sc1ccccc1)(Sc1ccccc1)Sc1ccccc1 (configuration not stated) , state whether its TGI is at least 10 µM. Condition met

Can C[C@]1(O)CC(=O)c2c(c(-c3ccc4cc5c(c(O)c4c3O)C(=O)C[C@@](C)(O)C5)c3cccc(O)c3c2O)C1 be said to have TGI at or above 10 µM? Condition met

Does TGI meet or surpass 10 µM for c1ccc2c(c1)nnn1c3cnccc3nc21 ? Condition met

Could you please find out whether CCOC(=O)/C(=C/c1cc(OC)ccc1OC)CC(=O)O has TGI that meets 10 µM or exceeds it? Condition met

Answer whether TGI of COc1cc(/C=C2\N=C(c3ccccc3)N(c3nc4c(Cl)cc(Cl)cc4s3)C2=O)ccc1O is greater than or equal to 10 µM. Condition met

API: above_or_equal(metric=TGI, cutoff=10 µM) for item Nc1ccc(-c2nc3cc(F)ccc3s2)cc1Br Condition met

Confirm if TGI reported for the molecule COc1ccc(C2=C(Br)C(=O)OC2)cc1Cl is 10 µM or above. Condition met

Determine whether measured TGI meets or exceeds 10 µM for O=C(CN1CCOCC1)c1ccc2[nH]c(=O)oc2c1 Condition met

Please indicate if the recorded TGI for COc1cccc(N=N/C(=N/NC(=O)c2cc(Cl)ccc2O)c2ccc(N(CCC#N)CCC#N)cc2C)c1 meets or exceeds 10 µM. Condition met

Given O=C(O[C@H]1CN[C@H](C#Cc2cc3ncnc(Nc4ccc(Cc5ccccc5)cc4)c3s2)C1)N1CCOCC1 , state whether its TGI is at least 10 µM. Condition not met

Tell me whether TGI is at least 10 µM here: NS(=O)(=O)c1cc(S(N)(=O)=O)c(NC(=O)Nc2ccc(Cl)c(Cl)c2)c(Cl)c1Cl Condition met

Threshold query (TGI >= 10 µM) on NNC(=O)CC(=O)Nc1ccc(C(=O)O)cc1 Condition met

The origin of these recorded values is PubChem BioAssay (NCI).
